biological target: GDP-bound KRAS wild-type protein (Homo sapiens); assay: Binding to KRAS by surface plasmon resonance (SPR), Single Cycle Kinetics; details: SPR Single Cycle Kinetics, GDP-bound KRAS wild-type protein, 1:1 binding model; read-out: KRAS KD
Sequence (P01116 whole entry): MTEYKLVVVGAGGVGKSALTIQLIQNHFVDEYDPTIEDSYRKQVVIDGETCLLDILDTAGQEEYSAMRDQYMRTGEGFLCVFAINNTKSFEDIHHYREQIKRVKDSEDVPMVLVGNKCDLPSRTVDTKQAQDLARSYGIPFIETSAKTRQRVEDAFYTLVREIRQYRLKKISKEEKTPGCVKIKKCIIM
*1 amine or outer side, *2 acyl side, *3 side chain or, on linkers, in order; H or OH if unused. Where a SMILES comes first, the peptide text is derived from it. Bridges are numbered along the chain shown (N, C = ends). [ ]: non-standard residue; d: D form. The star is where a group is joined. hPhe(3,5-F2-4-CF3) = N[C@@H](CCc1cc(F)c(C(F)(F)F)c(F)c1)C(=O)O; hPhe(3-Cl-4-CF3) = N[C@@H](CCc1ccc(C(F)(F)F)c(Cl)c1)C(=O)O; NPrPhe(4-CF3) = CCCN[C@@H](Cc1ccc(C(F)(F)F)cc1)C(=O)O; X28 = COCCCN([C@@H](Cc1ccc(C)cc1)C(=O)[*:2])[*:1]; NMeGly(cPent) = CN[C@H](C(=O)O)C1CCCC1; Pro(4,4-F2) = O=C(O)[C@@H]1CC(F)(F)CN1; cisHyp = O=C(O)[C@@H]1C[C@H](O)CN1; NMeD = CN[C@@H](CC(=O)O)C(=O)O; NMeL = CN[C@@H](CC(C)C)C(=O)O; Pip = O=C(O)[C@@H]1CCCCN1; αMeS = C[C@](N)(CO)C(=O)O; Morpholide = C1CN(*)CCO1; NMeA = CN[C@@H](C)C(=O)O; Ac5c = NC1(C(=O)O)CCCC1; Aze = O=C(O)[C@@H]1CCN1; Ethyl(2,2-F2) = FC(F)C*; NEtG = CCNCC(=O)O; Sar = CNCC(=O)O; tBu = CC(C)(C)*
Task for the reader: assign each of the following compounds its reported log10 Kd.
Note: values are log10 of Kd expressed in nM.

**Q:** For CC[C@H](C)[C@@H]1NC(=O)[C@H](CC(C)C)N(C)C(=O)C[C@@H](C(=O)N2CCOCC2)N(C)C(=O)[C@H](C2CCCC2)N(C)C(=O)C2(CCCC2)NC(=O)[C@@H]2CCCN2C(=O)[C@H](CCc2ccc(C(F)(F)F)c(Cl)c2)NC(=O)CN(C)C(=O)[C@H](Cc2ccc(C)cc2)N(CCCOC)C(=O)CN(C)C(=O)CN(C)C1=O [PP0105] ([NMeL]I[Sar][Sar][X28][Sar][hPhe(3-Cl-4-CF3)]P[Ac5c][NMeGly(cPent)][NMeD]-Morpholide; lactam N-11) , what is its reported log10 Kd?
**A:** -0.85

**Q:** For CCCN1C(=O)CN(C)C(=O)CN(CC)C(=O)[C@H]([C@@H](C)CC)NC(=O)[C@H](CC(C)C)N(C)C(=O)C[C@@H](C(=O)N2CCOCC2)N(C)C(=O)[C@H](C2CCCC2)N(C)C(=O)C2(CCCC2)NC(=O)[C@@H]2CCN2C(=O)[C@H](CCc2ccc(C(F)(F)F)c(Cl)c2)NC(=O)CN(C)C(=O)[C@@H]1Cc1ccc(C(F)(F)F)cc1 [PP0294] ([NMeL]I[NEtG][Sar][NPrPhe(4-CF3)][Sar][hPhe(3-Cl-4-CF3)][Aze][Ac5c][NMeGly(cPent)][NMeD]-Morpholide; lactam N-11) , what is its reported log10 Kd?
**A:** 0.23

**Q:** For CCCN1C(=O)CN(C)C(=O)CN(C)C(=O)[C@H]([C@@H](C)CC)NC(=O)[C@H](CC(C)C)N(C)C(=O)C[C@@H](C(=O)N(C)C)N(C)C(=O)[C@H](C2CCCC2)N(C)C(=O)[C@](C)(COC(C)(C)C)NC(=O)[C@@H]2CCCN2C(=O)[C@H](CCc2cc(F)c(C(F)(F)F)c(F)c2)NC(=O)CN(C)C(=O)[C@@H]1Cc1ccc(C(F)(F)F)cc1 [PP0743] ([NMeL]I[Sar][Sar][NPrPhe(4-CF3)][Sar][hPhe(3,5-F2-4-CF3)]P[αMeS](tBu)[NMeGly(cPent)][NMeD]-NMe2; lactam N-11) , what is its reported log10 Kd?
**A:** -0.17

**Q:** For CCC[C@H]1C(=O)N[C@@H]([C@@H](C)CC)C(=O)N(C)CC(=O)N(C)[C@H]2C/C=C\CCN(C2=O)[C@@H](Cc2ccc(C)cc2)C(=O)N(C)CC(=O)N[C@@H](CCc2cc(F)c(C(F)(F)F)c(F)c2)C(=O)N2C[C@H](OCC)C[C@H]2C(=O)NC2(CC(C)(C)C2)C(=O)N(C)[C@@H](CC(C)(C)C)C(=O)N(C)[C@H](C(=O)N(C)C)CC(=O)N1C [PP2706] , what is its reported log10 Kd?
**A:** -1.12

**Q:** For CCCN1C(=O)CN(C)C(=O)CNC(=O)[C@H]([C@@H](C)CC)NC(=O)[C@H](CC(C)C)N(C)C(=O)C[C@@H](C(=O)N2CCOCC2)N(C)C(=O)[C@H](C2CCCC2)N(C)C(=O)C2(CCCC2)NC(=O)[C@@H]2CC(F)(F)CN2C(=O)[C@H](CCc2ccc(C(F)(F)F)c(Cl)c2)NC(=O)CN(C)C(=O)[C@@H]1Cc1ccc(C(F)(F)F)cc1 [PP0394] ([NMeL]IG[Sar][NPrPhe(4-CF3)][Sar][hPhe(3-Cl-4-CF3)][Pro(4,4-F2)][Ac5c][NMeGly(cPent)][NMeD]-Morpholide; lactam N-11) , what is its reported log10 Kd?
**A:** -0.62

**Q:** For CC[C@H](C)[C@@H]1NC(=O)[C@H](COC)N(C)C(=O)C[C@@H](C(=O)N(C)C)N(C)C(=O)[C@H](C2CCCC2)N(C)C(=O)C2(CC(C)(C)C2)NC(=O)[C@@H]2C[C@@H](OC3CCCC3)CN2C(=O)[C@H](CCc2ccc(Cl)c(Cl)c2)NC(=O)CN(C)C(=O)[C@H](Cc2ccc(C)cc2)N2CC/C=C\C[C@@H](C2=O)N(C)C(=O)CN(C2CC2)C1=O [PP2628] , what is its reported log10 Kd?
**A:** -0.05

**Q:** For CC[C@H](C)[C@@H]1NC(=O)[C@H](CC(C)C)N(C)C(=O)C[C@@H](C(=O)N2CCOCC2)N(C)C(=O)[C@H](C2CCCC2)N(C)C(=O)C2(CCCC2)NC(=O)[C@@H]2CCCN2C(=O)[C@H](CCc2ccc(C(F)(F)F)c(Cl)c2)NC(=O)CN(C)C(=O)[C@H](Cc2ccc(F)cc2)N2CCCCC[C@@H](C2=O)N(C)C(=O)CN(C)C1=O [PP0612] , what is its reported log10 Kd?
**A:** -0.41

**Q:** For CCCN1C(=O)CN(C)C(=O)CN(C)C(=O)[C@H]([C@@H](C)CC)NC(=O)[C@H](CC(C)C)N(C)C(=O)C[C@@H](C(=O)N2CCOCC2)N(C)C(=O)[C@H](C2CCCC2)N(C)C(=O)C2(CCCC2)NC(=O)[C@@H]2C[C@H](OCC(F)F)CN2C(=O)[C@H](CCc2ccc(C(F)(F)F)c(Cl)c2)NC(=O)CN(C)C(=O)[C@@H]1Cc1ccc(C(F)(F)F)cc1 [PP0245] ([NMeL]I[Sar][Sar][NPrPhe(4-CF3)][Sar][hPhe(3-Cl-4-CF3)][cisHyp](Ethyl(2,2-F2))[Ac5c][NMeGly(cPent)][NMeD]-Morpholide; lactam N-11) , what is its reported log10 Kd?
**A:** -0.43

**Q:** For CCCN1C(=O)[C@@H]2CCN2C(=O)[C@H](C)N(C)C(=O)[C@H]([C@@H](C)CC)NC(=O)[C@H](CC(C)C)N(C)C(=O)C[C@@H](C(=O)N2CCOCC2)N(C)C(=O)[C@H](C2CCCC2)N(C)C(=O)C2(CCCC2)NC(=O)[C@@H]2CCCCN2C(=O)[C@H](CCc2ccc(C(F)(F)F)c(Cl)c2)NC(=O)CN(C)C(=O)[C@@H]1Cc1ccc(C(F)(F)F)cc1 [PP0284] ([NMeL]I[NMeA][Aze][NPrPhe(4-CF3)][Sar][hPhe(3-Cl-4-CF3)][Pip][Ac5c][NMeGly(cPent)][NMeD]-Morpholide; lactam N-11) , what is its reported log10 Kd?
**A:** -0.17
